System: L1210 leukemia
Experiment: Survival time of mice bearing the L1210 leukemia
Format: in vivo, mouse (CDF-1 mice)
Settings: 100 mg/kg once daily for six days, L1210 mice
I'd appreciate it if you could supply Av. Change wt. % values for the items below.

Entry CN(NS(=O)(=O)c1ccc(Cl)cc1)S(=O)(=O)c1ccc(Cl)cc1 : reported Av. Change wt. % = ? +4.0%

And what about the compound Cc1ccc(S(=O)(=O)NN(C)S(=O)(=O)c2ccc(C)cc2)cc1 ? +0.8%

And what about the compound Cc1ccc(S(=O)(=O)NN(C)S(=O)(=O)c2ccc(Cl)cc2)cc1 ? +5.5%

And what about the compound COc1ccc(S(=O)(=O)NN(C)S(=O)(=O)c2ccc(OC)cc2)cc1 ? +1.9%

And what about the compound COc1ccc(S(=O)(=O)NN(C)S(=O)(=O)c2ccc(C)cc2)cc1 ? +7.8%

And what about the compound CN(NS(=O)(=O)c1ccc2ccccc2c1)S(=O)(=O)c1ccc2ccccc2c1 ? +3.0%

And what about the compound Cc1ccc(S(=O)(=O)N(C)NS(=O)(=O)Cc2ccccc2)cc1 ? +2.4%

And what about the compound Cc1ccc(S(=O)(=O)N(C)NS(=O)(=O)c2ccc(Cl)cc2)cc1 ? +10.0%

And what about the compound COc1ccc(S(=O)(=O)N(C)NS(=O)(=O)c2ccc(C)cc2)cc1 ? +14.8%

And what about the compound Cc1ccc(S(=O)(=O)N(C)NS(=O)(=O)c2ccccc2)cc1 ? +5.4%

And what about the compound CN(NS(=O)(=O)c1ccccc1)S(=O)(=O)c1ccccc1 ? -5.2%

----------
Test system: L1210 leukemia
Experiment: Survival time of mice bearing the L1210 leukemia
Type: in vivo, mouse (CDF-1 mice)
Settings: Table II; L1210 leukemia, max. % T/C
Reported Property: Antineoplastic Activity (max. % T/C from Table III) (% T/C)
Hi! Could you send only the number? It should be in % T/C, unit omitted.

Entry COc1ccc(S(=O)(=O)N(C)NS(=O)(=O)c2ccc(C)cc2)cc1 [Compound 4] : reported Antineoplastic Activity (max. % T/C from Table III) = ? 113

And what about the compound Cc1ccc(S(=O)(=O)N(C)NS(=O)(=O)c2ccccc2)cc1 [Compound 1] ? 163

And what about the compound CN(NS(=O)(=O)c1ccc(Cl)cc1)S(=O)(=O)c1ccc(Cl)cc1 [Compound 10] ? 124

And what about the compound COc1ccc(S(=O)(=O)NN(C)S(=O)(=O)c2ccc(C)cc2)cc1 [Compound 2] ? 163

And what about the compound Cc1ccc(S(=O)(=O)N(C)NS(=O)(=O)c2ccc(Cl)cc2)cc1 [Compound 3] ? 189

And what about the compound Cc1ccc(S(=O)(=O)NN(C)S(=O)(=O)c2ccc(C)cc2)cc1 [Compound 8] ? 147

And what about the compound Cc1ccc(S(=O)(=O)NN(C)S(=O)(=O)c2ccc(Cl)cc2)cc1 [Compound 5] ? 141

----------
Tested on: B16 melanoma
Assay: Survival time of mice bearing the B16 melanoma
Type: in vivo, mouse (C57B1 mice)
Settings: at optimum effective daily dose, B16 mice
I'd appreciate it if you could supply Av. Change in wt., % values for the items below.
Hi! Could you send only the number? It should be in %, unit omitted.

Entry Cc1ccc(S(=O)(=O)NN(C)S(=O)(=O)c2ccc(C)cc2)cc1 [Compound 8] : reported Av. Change in wt., % = ? -2.7

And what about the compound COc1ccc(S(=O)(=O)N(C)NS(=O)(=O)c2ccc(C)cc2)cc1 [Compound 4] ? -14.0

And what about the compound CN(NS(=O)(=O)c1ccccc1)S(=O)(=O)c1ccccc1 [Compound 7] ? -2.3

And what about the compound Cc1ccc(S(=O)(=O)N(C)NS(=O)(=O)Cc2ccccc2)cc1 [Compound 6] ? -2.4

And what about the compound Cc1ccc(S(=O)(=O)N(C)NS(C)(=O)=O)cc1 [Compound 12] ? -1.9
